Where these numbers come from: patent US20080160035A1

Molecular target: T1, dimeric hIL-4R-hFc (human, UniProt P24394 26-232)
T1 construct: also called hIL-4R-Fc; not shown: human Fc (hFc)
T1 sequence: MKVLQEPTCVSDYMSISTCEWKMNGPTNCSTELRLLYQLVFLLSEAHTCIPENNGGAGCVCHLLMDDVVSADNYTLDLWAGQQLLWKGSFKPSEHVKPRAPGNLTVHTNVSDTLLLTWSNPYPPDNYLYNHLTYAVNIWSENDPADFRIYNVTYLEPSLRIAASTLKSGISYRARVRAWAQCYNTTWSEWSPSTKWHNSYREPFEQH
Assay: SPR (BIAcore 2000); antibody captured, dimeric hIL-4R-hFc injected
// reported pKd for each item listed
Please express pKd as -log10 of the molar concentration.

binder: VX 4E7-9 (antibody, V domains shown, 387/389; Apparently tested with mouse constant region (anti-mouse IgG capture/detection)) VH: QVQLVQSGAEVKKPGASVKVSCKASGYTFTNYGISWVRQAPGQGLEWMGWISVYNGKTNYAQKLQGRVTMTTDTSTTTAYMEMRSLRSDDTAVYYCARGSGYDLDYWGQGTLVSVSS VL: AIQMTQSPSSLSASVGDRVTITCRASQGIRNALGWYQQKPGKAPKLLIYAASSLQSGVPSRFSGSGSGTDFTLTFSSLQPEDFATYYCLQDFNYPYTFGQGTKLEIK
pKd: 9.95
//
binder: VAB 10G8-19 (antibody, V domains shown, Apparently tested with mouse constant region (anti-mouse IgG capture/detection)) VH: QVQLVQSGAEVKKPGASVKVSCKASRYTFTSYDINWVRQATGQGLEWMGWMNPNSGNTGYAQKFQGRVTMTRNTSTSTAYMELSSLRSEDTAVYYCARVRRFFDYWGQGTLVTVSS VL: DIQLTQSPSFLSASVGDRVTITCWASQGIISYLAWYQQKPGKAPKLLIYAASTLHSGVPSRFSGSGSGTEFTLTISSLQPEDFATYYCHQLKSYPITFGQGTRLEIK
pKd: 10.28

Could you now look at the following binder, please?
Per the record, VAB 11G8-1 (antibody, V domains shown, Apparently tested with mouse constant region (anti-mouse IgG capture/detection)) VH: QVQLVQSGAEVKKPGASVKVSCKASGYTFTNYGISWVRQAPGQGLEWMGWISVYNGHTNYAQKLQGRVTMTTDTSTSTAYMELRSLRSDDTAVYYCARGSGYDFDSWGQGTLVTVSS VL: AIQMTQSSSSLSASVGDRVTITCRASQAIRNALGWYQQKPGKAPKVLIYAASSLQSGIPSRFSGSGSGTDFTLTISSLQPEDFATYYCLQDYDYPYTFGQGTKLEIK has pKd of 9.97
